# ASSAY NOTES: Cytotoxicity against HIV1 3B infected in human MT4 cells by MTT assay
# Format: cell-based
# CONDITION SUMMARY: MT4 cells infected with HIV1 3B
CC50 for assorted compounds
RECORDED METRIC: CC50 (µM)

| SUBSTANCE SMILES | RECORDED METRIC | SIGN QUALIFIER | RESULT |
| --- | --- | --- | --- |
| O=C(CSc1nccnc1-c1ccccc1Cl)N1CCc2ccccc2C1 | CC50 | = | 33 |
| O=C1Nc2ccc(Cl)cc2[C@@](C#CC2CC2)(C(F)(F)F)O1 | CC50 | > | 6.3 |
| COC(=O)c1sccc1NC(=O)CSc1nccnc1-c1ccccc1Cl | CC50 | = | 68 |
| O=C(CSc1nccnc1-c1ccccc1Cl)Nc1ccccc1[N+](=O)[O-] | CC50 | = | 39 |
| Cc1ccc(NC(=O)CSc2nccnc2-c2ccccc2Cl)c([N+](=O)[O-])c1 | CC50 | = | 54 |

* * *

CC50 for assorted molecules
# ASSAY NOTES: Cytotoxicity against HIV1 3B infected in human MT4 cells by MTT assay
# Format: cell-based
# CONDITION SUMMARY: MT4 cells infected with HIV1 3B
RECORDED METRIC: CC50 (µM)

| MOLECULE | SIGN QUALIFIER | RESULT |
| --- | --- | --- |
| CCOC(=O)c1ccc(NC(=O)CSc2nccnc2-c2ccccc2Cl)c(Br)c1 | = | 45 |
| Nc1ccn([C@H]2CC[C@@H](CO)O2)c(=O)n1 [ZALCITABINE] | > | 95 |
| O=C(CSc1nccnc1-c1ccccc1Cl)Nc1ccccc1F | = | 48 |
| O=C(CSc1nccnc1-c1ccccc1Cl)Nc1cccnc1Cl | = | 152 |
| Cc1ccc2sc(NC(=O)CSc3nccnc3-c3ccccc3Cl)nc2c1 | = | 32 |
| COC(=O)c1ccc(NC(=O)CSc2nccnc2-c2ccccc2Cl)c(Br)c1 | = | 95 |
| CC(=O)c1ccc(NC(=O)CSc2nccnc2-c2ccccc2Cl)c(Br)c1 | = | 30 |
| O=C(CSc1nccnc1-c1ccccc1Cl)Nc1ccccc1Br | = | 31 |
| Cc1ccc(NC(=O)CSc2nccnc2-c2ccccc2Cl)c(Br)c1 | = | 31 |
| O=C(CSc1nccnc1-c1ccccc1Cl)Nc1ccc(Cl)cc1Cl | = | 29 |
| CC(C)Nc1cccnc1N1CCN(C(=O)c2cc3cc(NS(C)(=O)=O)ccc3[nH]2)CC1 [DELAVIRDINE] | > | 36 |

* * *

# ASSAY NOTES: Cytotoxicity against HIV2 ROD infected in human MT4 cells by MTT assay
# Type: cell-based
# CONDITION SUMMARY: MT4 cells infected with HIV2 ROD
CC50 for assorted molecules

| SUBSTANCE SMILES | CC50 |
| --- | --- |
| Cc1ccnc2c1NC(=O)c1cccnc1N2C1CC1 | > 15 µM |
| CC(C)Nc1cccnc1N1CCN(C(=O)c2cc3cc(NS(C)(=O)=O)ccc3[nH]2)CC1 | > 36 µM |
| O=C(CSc1nccnc1-c1ccccc1Cl)Nc1ccccc1Br | 41 µM |

* * *

# ASSAY NOTES: Selectivity index, ratio of CC50 for HIV1 3B infected in human MT4 cells to EC50 for HIV1 3B
# Assay type: toxicity, cell-based
# CONDITION SUMMARY: MT4 cells infected with HIV1 3B, read-out: Ratio CC50/EC50

| SUBSTANCE SMILES | SIGN QUALIFIER | selectivity ratio |
| --- | --- | --- |
| Cc1ccc(NC(=O)CSc2nccnc2-c2ccccc2Cl)c([N+](=O)[O-])c1 | = | 19 |
| O=C(CSc1nccnc1-c1ccccc1Cl)N1CCc2ccccc2C1 | = | 8 |
| O=C(CSc1nccnc1-c1ccccc1Cl)Nc1cccnc1Cl | = | 64 |
| O=C(CSc1nccnc1-c1ccccc1Cl)Nc1ccccc1F | = | 9 |
| O=C(CSc1nccnc1-c1ccccc1Cl)Nc1ccccc1[N+](=O)[O-] | = | 23 |
| Cc1cn([C@H]2C[C@H](N=[N+]=[N-])[C@@H](CO)O2)c(=O)[nH]c1=O | = | 12200 |
| O=C(CSc1nccnc1-c1ccccc1Cl)Nc1ccc(Cl)cc1Br | = | 5 |
| O=C(CSc1nccnc1-c1ccccc1Cl)N1CCCc2ccccc21 | < | 1 |
| CC(C)Nc1cccnc1N1CCN(C(=O)c2cc3cc(NS(C)(=O)=O)ccc3[nH]2)CC1 | > | 1100 |
| Cc1ccc2sc(NC(=O)CSc3nccnc3-c3ccccc3Cl)nc2c1 | < | 1 |
| CC(=O)c1ccc(NC(=O)CSc2nccnc2-c2ccccc2Cl)c(Br)c1 | = | 12 |
| O=C(CSc1nccnc1-c1ccccc1Cl)Nc1ccccc1Br | = | 7 |
| O=C(CSc1nccnc1-c1ccccc1Cl)Nc1ccccc1 | < | 1 |
| Cc1ccc(NC(=O)CSc2nccnc2-c2ccccc2Cl)c(Br)c1 | = | 9 |
| O=C(CSc1nccnc1-c1ccccc1Cl)Nc1ccccc1Cl | = | 7 |
| COC(=O)c1ccc(NC(=O)CSc2nccnc2-c2ccccc2Cl)c(Br)c1 | = | 25 |

Hey, just so you know, these numbers are from ChEMBL document CHEMBL2203239.
